normalized RNA/DNA level with ligand (log10) listing for selected variants.
B1: library; a variant is named by its letters at N, in order (parent)
chain: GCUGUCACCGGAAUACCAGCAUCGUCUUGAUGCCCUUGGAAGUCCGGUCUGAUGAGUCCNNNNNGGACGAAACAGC

variants of: B1; experiment: normalized RNA/DNA level with ligand (relative to sTRSVctl = 100) (log10 (% of sTRSVctl)); higher = less ribozyme self-cleavage, higher mRNA level; details: ligand concentration (+) RNA-Seq: 5 mM, HEK293T, reporter: mCherry (pCS4076), ligand present: yes
quantity.measured: normalized RNA/DNA level with ligand (log10)

mutant | experimental.result
AUCUC | 2.03
AAAUA | 1.99
CCUAU | 2.06
UAAUA | 2.03
GAUGC | 1.98
CCCCU | 2
AGAGC | 1.89
CGAUC | 1.93
AUUUC | 2.01
CGAAU | 1.93
AGGUC | 1.95
AUUCC | 1.99
UCUGC | 1.98
UCUGG | 2.06
AGCUA | 2.03
AGUGC | 2.01
CUCCU | 2.01
ACGAC | 1.98
ACAGU | 1.94
ACCAC | 2
AUAGG | 1.99
UACGA | 2.07
UUUGA | 2.09
AUGCG | 1.99
CGAGU | 1.99
UUGAA | 1.94
CAGCU | 2.02
CUAUU | 2.03
AAAGU | 1.92
AAAUU | 2.02
UGAAC | 1.97
AGAGU | 2.01
UCGAC | 1.9
UCGCU | 2.03
GACAU | 2.04
CUUUC | 2.07
UUAAU | 2
